List of IC50, inhibition of IL20 induced proliferation of BaF-3(hIL20R) at 1e-9M hIL20 (assay 3) values.
Subject Of Test: T1, recombinant human interleukin-20 (human, UniProt Q9NYY1 25-176)
T1 sequence: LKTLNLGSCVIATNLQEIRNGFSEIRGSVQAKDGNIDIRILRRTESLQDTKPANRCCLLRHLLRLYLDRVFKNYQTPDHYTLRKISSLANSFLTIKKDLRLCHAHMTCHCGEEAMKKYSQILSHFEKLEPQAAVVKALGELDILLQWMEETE
Measurement Description: cell-based or functional assay
Provide the reading as a plain figure in nM.

human anti-hIL20 monoclonal antibody 15D2 (antibody, V domains shown, also called 15D2-wt; 15D2 wild-type) VH: QVQLVQSGAEVKRPGASVKVSCKASGYTFTNDIIHWVRQAPGQRLEWMGWINAGYGNTQYSQNFQDRVSITRDTSASTAYMELISLRSEDTAVYYCAREPLWFGESSPHDYYGMDVWGQGTTVTVSS VL: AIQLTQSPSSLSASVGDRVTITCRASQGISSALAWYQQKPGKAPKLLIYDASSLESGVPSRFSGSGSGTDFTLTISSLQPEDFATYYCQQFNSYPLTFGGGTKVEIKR : 340
human anti-IL20 antibody 2F6 (antibody, human IgG4, V domains shown) VH: QITLKESGPTLVKPTQTLTLTCTFSGFSFSTNGVGVGWIRQPPGKALEWLALIYWNDDKRYSPSLKSRLTITKDTSKNQVVLTMTNMDPLDTATYYCAHSPFIMVRGVIITFFDFWGQGTLVT VL: VIWMTQSPSLLSASTGDRVTISCRMSQGISSYLAWYQQKPGKAPELLIYAASTLQSGVPSRFSGSGSGTDFTLTISCLQSEDFATYYCQQYYSFPLTFGGGTKVEIKR : 1670
human anti-IL20 antibody C11 (antibody, human IgG1, V domains shown) VH: QVQLVQSGAEVKRPGASVKVSCKASGYTFTNDIIHWVRQAPGQRLEWMGWINAGYGNTQYSQNFQDRVSITRDTSASTAYMELISLRSEDTAVYYCAREPLWFGESSPHDYYGMDVWGQGTTVTVSS VL: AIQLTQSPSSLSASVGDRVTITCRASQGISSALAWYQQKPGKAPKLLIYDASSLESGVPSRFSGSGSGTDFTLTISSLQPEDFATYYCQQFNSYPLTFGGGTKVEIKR : 370

Item: human anti-hIL20 monoclonal antibody 5B7 (antibody, human IgG4, V domains shown, described as human IgG4; also called 5B7-wt) VH: QVQLVQSGAEVKRPGASVKVSCKASGYTFSSHIMHWVRQAPGQRLEWMGWINAGYGNTKYSQNFQDRVTITRDTSASTAYMELISLRSEDTAVYYCAREPLWFGELSPHDYYGMDVWGQGTTVTVSS VL: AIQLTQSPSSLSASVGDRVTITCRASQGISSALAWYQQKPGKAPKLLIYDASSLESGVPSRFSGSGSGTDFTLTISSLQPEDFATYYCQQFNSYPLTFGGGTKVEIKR | IC50, inhibition of IL20 induced proliferation of BaF-3(hIL20R) at 1e-9M hIL20 (assay 3): 760
